System: Escherichia coli strain MC4100 IMP-4213, which harbors an LptD mutation
Measurement parameters: E. coli MC4100 IMP-4213; 35° C., 22 hours
Where a SMILES comes first, the peptide text is derived from it. The star is where a group is joined. boroAla((+)-pinanediol) = C[C@H](N*)B1O[C@@H]2C[C@@H]3C[C@@H](C3(C)C)[C@]2(C)O1; Propanoyl(3-decylamino) = CCCCCCCCCCNCCC(=O)*
Observed property: MIC (μg/mL) E. coli (µg/mL)
The reply should be a number in µg/mL, with the unit left off.

Exam item: Would you kindly share the measured MIC (μg/mL) E. coli for CCCCCCCCCCNCCC(=O)N[C@@H](CCCCN)C(=O)N[C@H](C(=O)N[C@@H](C)C(=O)N[C@@H](Cc1cnc[nH]1)C(=O)N[C@@H](C)B1O[C@@H]2C[C@@H]3C[C@@H](C3(C)C)[C@]2(C)O1)[C@@H](C)O [Compound 225] ({Propanoyl(3-decylamino)}-KTAH-{boroAla((+)-pinanediol)}) ?
Marked response: 16

Exam item: CCCCCCCCCCNCCC(=O)N[C@@H](CCCCN)C(=O)N[C@@H](CCC(=O)O)C(=O)N[C@@H](C)C(=O)N[C@@H](CCCCN)C(=O)N[C@@H](C)B1O[C@@H]2C[C@@H]3C[C@@H](C3(C)C)[C@]2(C)O1 [Compound 223] ({Propanoyl(3-decylamino)}-KEAK-{boroAla((+)-pinanediol)}) , same question.
Marked response: 64

----------
Kindly supply the reported MIC (μg/mL) E. coli values for the records listed here.
Tested on: Escherichia coli strain MC4100 IMP-4213, which harbors an LptD mutation
Measurement parameters: E. coli MC4100 IMP-4213; 35° C., 22 hours
*1 amine or outer side, *2 acyl side, *3 side chain or, on linkers, in order; H or OH if unused. Where a SMILES comes first, the peptide text is derived from it. [ ]: non-standard residue; d: D form. The star is where a group is joined. boroAla((+)-pinanediol) = C[C@H](N*)B1O[C@@H]2C[C@@H]3C[C@@H](C3(C)C)[C@]2(C)O1; Benzoyl(4-(4-Cl-Ph)) = O=C(c1ccc(-c2ccc(Cl)cc2)cc1)*; Ethanesulfonyl(2-NHDecyl) = CCCCCCCCCCNCCS(=O)(=O)*; X34 = CCCCc1ccc(-c2ccc(S(=O)(=O)*)cc2)cc1; AlaCOCOOMe = COC(=O)C(=O)[C@H](C)N*; X1 = C[C@H](N[*:1])C(=O)C(=O)[*:2]; X12 = C[C@H](N*)C(=O)c1nc2ccccc2o1; NDecylGly = CCCCCCCCCCNCC(=O)O; X3 = CCCCc1ccc(C2CCN(*)CC2)cc1; boroAla = C[C@H](N*)B(O)O; Octanoyl = CCCCCCCC(=O)*; Dab = NCC[C@H](N)C(=O)O; Dap = NC[C@H](N)C(=O)O; CO = O=C([*:1])[*:2]; NHcPr = C1CC1N*
Please respond with the number in µg/mL and leave the unit unwritten.

Exam item: Look up MIC (μg/mL) E. coli for this molecule: CCCCc1ccc(-c2ccc(S(=O)(=O)N[C@@H](CCCCN)C(=O)N[C@H](C(=O)N[C@@H](C)C(=O)N[C@@H](CCCCN)C(=O)N[C@@H](C)B3O[C@@H]4C[C@@H]5C[C@@H](C5(C)C)[C@]4(C)O3)[C@@H](C)O)cc2)cc1 [Compound 236] (X34-KTAK-{boroAla((+)-pinanediol)})
Marked response: 16

Exam item: Try this molecule too: C[C@H](NC(=O)[C@H](CCCCN)NC(=O)[C@H](C)NC(=O)[C@@H](NC(=O)[C@H](CCN)NC(=O)c1ccc(-c2ccc(Cl)cc2)cc1)[C@@H](C)O)B(O)O [Compound 119] ({Benzoyl(4-(4-Cl-Ph))}-[Dab]TAK-boroAla)
Marked response: 2

Exam item: Item: C[C@H](NC(=O)[C@@H](NC(=O)[C@H](CN)NC(=O)c1ccc(-c2ccc(Cl)cc2)cc1)[C@@H](C)O)C(=O)N[C@@H](CCCCN)C(=O)N[C@@H](C)C(=O)C(=O)NC1CC1 [Compound 109] ({Benzoyl(4-(4-Cl-Ph))}-[Dap]TAK[X1]-NHcPr)
Marked response: 32

Exam item: Now the same for CCCCc1ccc(C2CCN(C(=O)N[C@@H](CCCCN)C(=O)N[C@H](C(=O)N[C@@H](C)C(=O)N[C@@H](CCCCN)C(=O)N[C@@H](C)B3O[C@@H]4C[C@@H]5C[C@@H](C5(C)C)[C@]4(C)O3)[C@@H](C)O)CC2)cc1 [Compound 127] ({X3-CO}-KTAK-{boroAla((+)-pinanediol)})
Marked response: 32

Exam item: Thanks! And CCCCCCCC(=O)N[C@@H](CN)C(=O)N[C@H](C(=O)N[C@@H](C)C(=O)N[C@@H](CCCCN)C(=O)N[C@@H](C)B1O[C@@H]2C[C@@H]3C[C@@H](C3(C)C)[C@]2(C)O1)[C@@H](C)O [Compound 260] (Octanoyl-[Dap]TAK-{boroAla((+)-pinanediol)}) ?
Marked response: 32

Exam item: And for CCCCCCCCCCNC[C@@H](N)C(=O)N[C@H](C(=O)N[C@@H](C)C(=O)N[C@@H](CCCCN)C(=O)N[C@@H](C)B1O[C@@H]2C[C@@H]3C[C@@H](C3(C)C)[C@]2(C)O1)[C@@H](C)O ?
Marked response: 32

Exam item: Check C[C@H](NC(=O)[C@@H](NC(=O)[C@H](CN)NC(=O)c1ccc(-c2ccc(Cl)cc2)cc1)[C@@H](C)O)C(=O)N[C@@H](CCCCN)C(=O)N[C@@H](C)C(=O)c1nc2ccccc2o1 [Compound 214] ({Benzoyl(4-(4-Cl-Ph))}-[Dap]TAK-X12) too.
Marked response: 32

Exam item: What do you have for CCCCCCCC(=O)N[C@@H](CCN)C(=O)N[C@H](C(=O)N[C@@H](C)C(=O)N[C@@H](CCCCN)C(=O)N[C@@H](C)B1O[C@@H]2C[C@@H]3C[C@@H](C3(C)C)[C@]2(C)O1)[C@@H](C)O [Compound 114] (Octanoyl-[Dab]TAK-{boroAla((+)-pinanediol)}) ?
Marked response: 32

Exam item: Again, but for CCCCCCCCCCNCC(=O)N[C@@H](CCCCN)C(=O)N[C@H](C(=O)N[C@@H](C)C(=O)N[C@@H](CCCCN)C(=O)N[C@@H](C)B1O[C@@H]2C[C@@H]3C[C@@H](C3(C)C)[C@]2(C)O1)[C@@H](C)O [Compound 230] (H-[NDecylGly]KTAK-{boroAla((+)-pinanediol)})
Marked response: 32

Exam item: Entry CCCCCCCCCCNCCS(=O)(=O)N[C@@H](CCN)C(=O)N[C@H](C(=O)N[C@@H](C)C(=O)N[C@@H](CCCCN)C(=O)N[C@@H](C)C(=O)C(=O)OC)[C@@H](C)O [Compound 252] ({Ethanesulfonyl(2-NHDecyl)}-[Dab]TAK-AlaCOCOOMe) please
Marked response: 64

This collection of values is drawn from patent US20160194358A1.
